All figures here come from the supplement of paper PMC10567573.

B1: ZNF649 (parent)
chain: LVAHQRYHTGKTPFVCPECGQPCS

- Variants of: B1
- test description: protein stability index of a GFP-peptide fusion (GPS, HEK-293T) (PSI 1-6); higher = more stable;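 further: lentivirally expressed fusions sorted by FACS into six bins by GFP to DsRed ratio, PSI derived from sequencing read proportions per bin multiplied by bin number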
- run conditions: c terminus: a fixed tail appended
attribute measured: protein stability index
Just the number, please, no unit after it.

As a guide, the following entries are already answered.
LVAHQRYHTGKTPFVCPECGCPCS [Q21C] :: 3.08
LVAHQRYHTGKTPFACPECGQPCS [V15A] :: 3.33
LVAHQRYHTGKWPFVCPECGQPCS [T12W] :: 2.96

Query LVAHQRAHTGKTPFVCPECGQPCS [Y7A] yields protein stability index of 3.83

Query LVQHQRYHTGKTPFVCPECGQPCS [A3Q] yields protein stability index of 3.68

Query LVAHQRYHTGKTPFVCPECFQPCS [G20F] yields protein stability index of 2.85

Query LVAHQRYHTGKTPFVCPECGQPCA [S24A] yields protein stability index of 2.94

Query LVAHQRYHTGDTPFVCPECGQPCS [K11D] yields protein stability index of 3.45

Query LVAHQRYHTGKTPFVCPECGLPCS [Q21L] yields protein stability index of 2.74

Query LVAHQRYHTGKTPFVCPECGQPHS [C23H] yields protein stability index of 3.15

Query LPAHQRYHTGKTPFVCPECGQPCS [V2P] yields protein stability index of 3.5

Query LVAHQRYHKGKTPFVCPECGQPCS [T9K] yields protein stability index of 2.52

Query LVAHQRYHTGKTPFVCPEMGQPCS [C19M] yields protein stability index of 2.58
